# target.entity: UniProt P11597
# Sequence (P11597 whole entry): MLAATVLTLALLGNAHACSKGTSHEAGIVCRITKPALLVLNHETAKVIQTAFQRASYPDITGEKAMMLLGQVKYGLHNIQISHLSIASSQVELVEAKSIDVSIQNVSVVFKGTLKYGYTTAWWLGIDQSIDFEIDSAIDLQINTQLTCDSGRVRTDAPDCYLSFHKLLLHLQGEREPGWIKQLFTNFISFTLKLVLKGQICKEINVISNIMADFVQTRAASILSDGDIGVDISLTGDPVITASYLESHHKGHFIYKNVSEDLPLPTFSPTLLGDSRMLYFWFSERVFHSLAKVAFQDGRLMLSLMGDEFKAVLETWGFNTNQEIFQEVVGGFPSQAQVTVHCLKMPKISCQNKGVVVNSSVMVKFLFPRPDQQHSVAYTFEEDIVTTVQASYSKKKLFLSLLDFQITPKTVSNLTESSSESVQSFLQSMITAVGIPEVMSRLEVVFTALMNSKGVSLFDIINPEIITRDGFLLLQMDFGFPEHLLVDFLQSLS
# experimental.details: Cholesteryl Ester Transfer Assay: As a protein source for cholesteryl ester transfer, plasma from healthy persons was used, and as a cholesteryl ester receptor, LDL from healthy persons was used. Samples were treated with each test compound to final concentrations of 16, 80, 400, 2000 and 10000 nM and analyzed in duplicate. For the cholesteryl ester transfer test, 20 μl of plasma, 50 μl of LDL (0.25 mg/ml) and 50 μl of rHDL-agarose (0.25 mg/ml) were added, and a solution containing a test compound was added, followed by reaction at 37° C. Then, centrifugation was performed at 4° C. for 3 minutes to stop the reaction, and 150 μl of the supernatant was taken and transferred to a 96-well plate for radioactivity measurement, and the radioactivity of the plate was measured with a beta-ray detector.
quantity.name: IC50 (nM)

item_smiles=COc1cc(C(F)(F)F)c(-c2ccc(C(=O)O)cc2F)cc1C1=C(CN2C(=O)O[C@H](c3cc(C(F)(F)F)cc(C(F)(F)F)c3)[C@@H]2C)CC(C)(C)CC1 readout_number=9.1
item_smiles=COc1cc(C(F)(F)F)c(-c2ccc(C(=O)O)cc2Cl)cc1C1=C(CN2C(=O)O[C@H](c3cc(C(F)(F)F)cc(C(F)(F)F)c3)[C@@H]2C)CC(C)(C)CC1 readout_number=12.3
